Test system: Escherichia coli TOP10
Test: shrunken log2 fold change of peptide-encoding DNA abundance (4.5 h post-induction vs induction); higher = less antimicrobial activity (less host growth inhibition)
Conditions: time post-induction: 4.5 h; library: site-saturation at positions 5, 18, 19, 20
metric: shrunken log2 fold change
Output spec: single numeric token, no unit.

Some solved cases for reference:
RRIRGRPPRLPRPRPRPNVWPRP	0.728
RRIRWRPPRLPRPRPRPNIFPRP	0.0551
RRIRLRPPRLPRPRPRPVMHPRP	-0.16

[Q] Give the measured shrunken log2 fold change of "RRIRVRPPRLPRPRPRPCEDPRP" .
[A] -0.0254

[Q] Entry "RRIRFRPPRLPRPRPRPHDSPRP" has what shrunken log2 fold change?
[A] 0.0531

[Q] Reported shrunken log2 fold change for "RRIRTRPPRLPRPRPRPRPWPRP" : what is it?
[A] 0.0956

[Q] // lookup shrunken log2 fold change for "RRIRARPPRLPRPRPRPMSGPRP"
[A] 0.0632

[Q] Quick check: shrunken log2 fold change of "RRIRCRPPRLPRPRPRPGYVPRP" ?
[A] -0.0932

====

System: Escherichia coli TOP10
Test: shrunken log2 fold change of peptide-encoding DNA abundance (4.5 h post-induction vs induction); higher = less antimicrobial activity (less host growth inhibition)
Settings: time post-induction: 4.5 h; library: site-saturation at positions 5, 18, 19, 20
Class class 1: shrunken log2 fold change at least 0.1. Class class 0: shrunken log2 fold change below 0.1.

RRIRVRPPRLPRPRPRPANMPRP	class 0

[Q] Reported shrunken log2 fold change at or above 0.1? "RRIRRRPPRLPRPRPRPYAEPRP"
[A] class 1

[Q] Identify whether the reported shrunken log2 fold change of the following sequence is 0.1 or greater: "RRIRCRPPRLPRPRPRPSVEPRP"
[A] class 0

[Q] Please tell me: is the sequence "RRIRGRPPRLPRPRPRPYKQPRP" at or over 0.1 in terms of shrunken log2 fold change?
[A] class 0

[Q] Confirm if shrunken log2 fold change reported for the sequence "RRIRIRPPRLPRPRPRPEESPRP" is 0.1 or above.
[A] class 1

[Q] Dear colleague, could you confirm whether "RRIRWRPPRLPRPRPRPVRAPRP" has shrunken log2 fold change at or above 0.1?
[A] class 1

====

Measured shrunken log2 fold change accompanies every entry in the list below.
Tested on: Escherichia coli TOP10
Experiment: shrunken log2 fold change of peptide-encoding DNA abundance (4.5 h post-induction vs induction); higher = less antimicrobial activity (less host growth inhibition)
Settings: time post-induction: 4.5 h; library: site-saturation at positions 5, 18, 19, 20
In your answer, state the number alone without any accompanying words.

[Q] Look up shrunken log2 fold change: "RRIRSRPPRLPRPRPRPMWTPRP"
[A] -0.0682

[Q] Which shrunken log2 fold change reading was recorded for the sequence "RRIRERPPRLPRPRPRPMRTPRP" ?
[A] 0.0487

[Q] Query (sequence): "RRIRKRPPRLPRPRPRPRRYPRP" ; field requested: shrunken log2 fold change
[A] 0.47

[Q] Please give the measured shrunken log2 fold change for this sequence: "RRIRSRPPRLPRPRPRPATNPRP"
[A] 0.0897

====

Quick reference for shrunken log2 fold change among some sequences
System: Escherichia coli TOP10;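 further: peptides expressed intracellularly from a pBAD plasmid library in pooled LB shake-flask culture, induced with 0.3% L-arabinose, DNA abundance read by NGS, three biological replicates, DESeq2 with apeglm shrinkage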
Test: shrunken log2 fold change of peptide-encoding DNA abundance (4.5 h post-induction vs induction); higher = less antimicrobial activity (less host growth inhibition)
Conditions: time post-induction: 4.5 h; library: site-saturation at positions 5, 18, 19, 20
Number, no unit, nothing else.

Here is how some sequences turned out for shrunken log2 fold change.
RRIRARPPRLPRPRPRPGKFPRP	-0.167
RRIRTRPPRLPRPRPRPESQPRP	-0.0324
RRIRPRPPRLPRPRPRPYESPRP	-0.186

[Q] # get_value(readout= shrunken log2 fold change, system= Escherichia coli TOP10) for "RRIRSRPPRLPRPRPRPWAEPRP"
[A] 0.0168

[Q] What reported shrunken log2 fold change corresponds to "RRIRNRPPRLPRPRPRPCVCPRP" on Escherichia coli TOP10?
[A] -0.00201
